meta.source: the supplement of paper PMC9170038

# Test system: MS2 coat protein
# Test name: apparent KD of MS2 coat protein; designed switch direction (-1 OFF switch, 1 ON switch): -1; higher = weaker reporter binding
# Test settings: Eterna round: R95; input ligand: none
Param threshold (30 nM) applies to apparent KD of MS2 coat protein; output criterion met when value >= threshold, criterion not met when value < threshold.

Dear colleague, could you confirm whether CAUGUGUAAGGAUAUGACAAUGGUAUCGAAAGAUACCAUUGUCAGAAGGUACAUGAGGAUCACCCAUGUAGAUC [Ex4-3: 19] (puzzle: Exclusion 4) has apparent KD of MS2 coat protein at or above 30 nM?
criterion met

Queued: AAGAAACAUGAGGAUCACCCAUGUGAGGAUAUGUAAAAUAAAAGAAAAUAAAGAAGAAACAGAAGGCACAAAGG [Mat - Mod of Hog D22] (puzzle: Exclusion 1)
criterion met

Queued: AAGAAGCGAGGAUAUACAUGAGGAUCACCCAUGUACCUCAUAAAGAAAAGAAAAGAAAGUAGAAGGCGCAAAAG [Default title] (puzzle: Exclusion 3)
criterion not met

Queued: CUUAGACAUGAGGAUCACCCAUGUGAGGAUAUGAAAUUAAUUAAGUAUGAAGUAUGAAUCAGAAGGCACAUAUG [Mat - Mod of Hyphema D34] (puzzle: Exclusion 1)
criterion met

Queued: AGAAAUGCCCGUGACCACAAGCUUUUUGCUUGUCUUACUACAUGAGGAUCACCCAUGUAACAUGGGCUCCUGACAAU [Maleisar] (puzzle: Sensor v3, turn-off variant 2)
criterion not met

Queued: CUCCUCAUGGCGCCUAAACACAUGAGGAUCACCCAUGUACAGGCUUCUUGCCGUCUUAUAAUAAAACCGAGGAUGCG [Onleorqula] (puzzle: Sensor v3, turn-off variant 1)
criterion met

Queued: GUGAAACAUGAGGAUCACCCAUGUGAGGAUAUGAUUAAGUAAUGAUGAAAGUAUAUAUUCAGAAGGCACAAUGG [Mat - Mod of JL D73] (puzzle: Exclusion 1)
criterion met

Queued: AGUACUAACACGGAAGUGUUAGUACAAUAAGCUUGUGUUACAUGAGGAUCACCCAUGUCCUCAUAAGCUCGUCUUAA [Mat - Sensor v3 - Turn-off var 2 - D62] (puzzle: Sensor v3, turn-off variant 2)
criterion met

Queued: CUGGUCCGAGGAUAUAUUAUGUGAAACAUGAGGAUCACCCAUGUUAUAUAAUGGAUGUAAAUAGAAGGCGGACUAG [Mat - Exclusion 5 - JL mod - D62] (puzzle: Exclusion 5)
criterion not met

Queued: GGUCGGCGAGGAUAUACAUGAGGAUCACCCAUGUGAUAGAGUGCACGCGUACGUGUACGUAGAAGGCGCUGACG [JL-ex3-3.28 salish99 mod] (puzzle: Exclusion 3)
criterion not met

Queued: AGUACUAUCACGAAAGUGAUAGUACAAUAAACAAGUGAAACAUGAGGAUCACCCAUGUCCUCAUUUGCUCGUCUUAU [Sensor 3 - 1] (puzzle: Sensor v3, turn-off variant 2)
criterion met

Queued: CAUGGGUGUGAGCCGCAUUACAUGAGGAUCACCCAUGUCAACAAGCUUUUUGCUUGUCUUACGCGGCGGCACCAAAA [Bimaus] (puzzle: Sensor v3, turn-off variant 1)
criterion not met

Queued: AGUUCUAACACGUUGGUGUUAGUACCAUAAGCUUGUGAUACAUGAGGAUCACCCAUGUCCUCAUAAGCUCGUCUUAU [salish99_TOv2_r3_1001] (puzzle: Sensor v3, turn-off variant 2)
criterion not met

Queued: UGUUGGCGAGGAUAUACAUGAGGAUCACCCAUGUGAGAGAAAAAAGUGAGGAAGAAAAGUAGAAGGCGCUGACG [salish99_ex3_r3_043] (puzzle: Exclusion 3)
criterion met

Queued: AAGUACCGUCACGAUAGUGAUGGUACAGCAAGUAGUGAAACAUGAGGAUCACCCAUGUCCUCAAUUGCUCGUCUUAU [Sensor 3 - 82] (puzzle: Sensor v3, turn-off variant 2)
criterion met

Queued: AGUAGUAGUAUCCGAUCCUACAUGAGGAUCACCCAUGUAGCUGGACGUGCACGCGAUGCUCGUCAGACUACCAGAUG [salish99_TOv1_r3_044] (puzzle: Sensor v3, turn-off variant 1)
criterion met

Queued: AGACGUCAAGUCAGGAUAUAGAGGCAAGUCCACCGCUAGAAGGGACAUGAGGAUCACCCAUGUAGGGUUUAGCU [Zainsoed] (puzzle: Brourd's mod of Exclusion 4)
criterion met

Queued: AUGUUUGUAGUGAGGAUAUCGUUGAGGAAGAGGAUCGAGAAGGCACAUGAGGAUCACCCAUGUAAGAUGUGGUA [JR_BMOE4_Sub081] (puzzle: Brourd's mod of Exclusion 4)
criterion met

Queued: GGAAAACAUGAGGAUCACCCAUGUAAGGAUAUGCAAAAGGAUAUAGAAGGAAAAAAAAGCAGAAGGUACAAAGG [salish99-ex1_r3_094] (puzzle: Exclusion 1)
criterion met

Queued: GUGGAGUAAGGAUAUACAUGAGGAUCACCCAUGUGAGGGUAUGAGAAGGGAAUGAGAGGUAGAAGGUACGAGGA [JR_Exclu3_Sub069] (puzzle: Exclusion 3)
criterion met
